Data origin, for the record: PubChem BioAssay (EPA / NIEHS)

Test: ATG_XTT_Cytotoxicity: Cytotoxicity Assessment in the Attagene TRANS-FACTORIAL HepG2 Assay (AID 2283584)
Records with an inconclusive call do not appear. The source made the active and inactive calls. Rule for the calls: active = hit-call score of the fitted dose curve at least 0.9, where 1 is the maximum; inconclusive = response in the unintended direction; inactive = score below 0.9.
Output constraint: value belongs to active, inactive

>>> class_label("C[Si]1(C)O[Si](C)(C)O[Si](C)(C)O1")
"inactive"
>>> class_label("O=C(O)c1cccnc1C(=O)O")
"inactive"
>>> class_label("Cc1cc(C)nc(NS(=O)(=O)c2ccc(N)cc2)n1")
"inactive"
>>> class_label("CCCCCCCCCC(=O)OC")
"inactive"

Short answer needed: outcome of this test for `CCCOC(=O)c1c(Cl)c(Cl)c(Cl)c(Cl)c1C(=O)OCCC` ?
inactive

Short answer needed: outcome of this test for `COc1ccc(CCO)cc1` ?
inactive

Short answer needed: outcome of this test for `C=C(C)C(=O)OCC(CC)(COC(=O)C(=C)C)COC(=O)C(=C)C` ?
inactive

Short answer needed: outcome of this test for `CC1(C)O[C@@H]2[C@@H](CO[C@@]3(COS(N)(=O)=O)OC(C)(C)O[C@@H]23)O1` ?
inactive

###

Experiment: CEETOX_H295R_OHPREG: CeeTox H295R High-throughput Steroidogenesis Assay for OH-Pregnenolone (OHPREG) (AID 2283434)
Settings: actives raise or lower the signal
Active and inactive are the calls of the source. The calls were made as follows: active = hit-call score of the fitted dose curve at least 0.9, where 1 is the maximum; inactive = score below 0.9.
Output constraint: value belongs to label 1 = active, label 0 = inactive

>>> class_label("COc1ccc(N=Nc2cc(C)c(N=Nc3ccc(S(=O)(=O)O)cc3)cc2OC)cc1")
"label 0"

Short answer needed: outcome of this test for `OCc1cccc(Oc2ccccc2)c1` ?
label 0

Short answer needed: outcome of this test for `Nc1ccc(N)c2c1C(=O)c1ccccc1C2=O` ?
label 0

Short answer needed: outcome of this test for COCCc1ccc(OCC(O)CNC(C)C)cc1 (centres undefined) ?
label 0

Short answer needed: outcome of this test for `C=C1CC[C@H](O)C/C1=C/C=C1\CCC[C@]2(C)[C@@H]([C@H](C)/C=C/[C@H](C)C(C)C)CC[C@@H]12` ?
label 1

Short answer needed: outcome of this test for `CCc1cc(C(C)(C)C)c(O)c(C(C)(C)C)c1` ?
label 0

###

Read-out: Interleukin 6 (IL6), IL6 (gene 3569)
Test: BSK_BT_xIL6: BioMAP Diversity Plus: BT Assay for Interleukin 6 (IL6) Biomarker Activity (AID 2284228)
Conditions: primary human B cells with PBMC
Calls of active or inactive are those of the source. The calls were made as follows: active = hit-call score of the fitted dose curve at least 0.9, where 1 is the maximum; inactive = score below 0.9.
Output constraint: value belongs to active, inactive

Short answer needed: outcome of this test for `C=C(C)C(=O)OCC(CC)(COC(=O)C(=C)C)COC(=O)C(=C)C` ?
active

Short answer needed: outcome of this test for `CC=Cc1ccc(OCC)c(O)c1` ?
inactive

Short answer needed: outcome of this test for `CC(C)(N=C=O)c1cccc(C(C)(C)N=C=O)c1` ?
inactive

Short answer needed: outcome of this test for `O=C1c2ccccc2C(=O)c2c(O)ccc(O)c21` ?
active

Short answer needed: outcome of this test for C1=CC2C3C=CC(C3)C2C1 (configuration not stated) ?
inactive

Short answer needed: outcome of this test for `IC(I)I` ?
inactive

Short answer needed: outcome of this test for `CCCCN(CCCC)C(=O)N(CCCC)CCCC` ?
active

###

Assay: ATG_NF_kB_CIS: Attagene CIS-FACTORIAL HepG2 Assay for human Nuclear Factor Kappa B (NF-kB) (AID 2282991)
Details: HepG2 Attagene cis-factorial NF-kB reporter mRNA; actives raise or lower the signal
The source made the active and inactive calls. Rule for the calls: active = hit-call score of the fitted dose curve at least 0.9, where 1 is the maximum; inactive = score below 0.9.
Output constraint: value belongs to Yes (active), No (inactive)

Worked examples follow.
>>> class_label("O=C1OC2(c3ccccc31)c1ccc(O)c(Br)c1Oc1c2ccc(O)c1Br")
"No"
>>> class_label("COc1cc(CCC(C)=O)ccc1O")
"No"
>>> class_label("C=C(C)C(=O)OCC(CC)(COC(=O)C(=C)C)COC(=O)C(=C)C")
"No"
>>> class_label("CCCCCCCCCCCC(=O)OCC(O)CO (centres undefined)")
"Yes"
>>> class_label("O=C(CS)OCCOC(=O)CS")
"Yes"
>>> class_label("CC(=O)c1c(C)c([N+](=O)[O-])c(C(C)(C)C)c([N+](=O)[O-])c1C")
"No"
>>> class_label("CC(=O)OCCCc1ccccc1")
"No"
>>> class_label("CCCCCCCCC=CCCCCCCCC1=NCCN1CCO")
"Yes"
>>> class_label("C=C[Si]1(C)O[Si](C)(C=C)O[Si](C)(C=C)O[Si](C)(C=C)O1 (centres undefined)")
"Yes"
>>> class_label("CSCCC=O")
"No"

Short answer needed: outcome of this test for CCCCC(CC)COC(=O)c1ccc(O)cc1 (centres undefined) ?
No

Short answer needed: outcome of this test for `CCOc1ccccc1O` ?
No

Short answer needed: outcome of this test for `CN(C)c1cccc(O)c1` ?
No

Short answer needed: outcome of this test for `OCCc1ccccc1` ?
No

Short answer needed: outcome of this test for `[O-]n1ccccc1=S.[O-]n1ccccc1=S.[Zn+2]` ?
Yes

Short answer needed: outcome of this test for `CCC(C)=O` ?
No

Short answer needed: outcome of this test for `CC(C)(N=C=O)c1cccc(C(C)(C)N=C=O)c1` ?
No

Short answer needed: outcome of this test for `CS(C)=O` ?
No

Short answer needed: outcome of this test for CCOC(=O)CC(C)O (centres undefined) ?
No

Short answer needed: outcome of this test for `NCc1ccco1` ?
No

Short answer needed: outcome of this test for `Cc1ccc(N)c(S(=O)(=O)O)c1` ?
No

Short answer needed: outcome of this test for `CC(C)(C)C1=CC(=O)C(C(C)(C)C)=CC1=O` ?
Yes

Short answer needed: outcome of this test for `Cc1cc(=O)oc2cc(N(C)C)ccc12` ?
No

###

Assay: ATG_VDRE_CIS: Attagene CIS-FACTORIAL HepG2 Assay for human Vitamin D Receptor Element (VDRE) (AID 2282968)
Conditions: HepG2 VDRE cis-reporter transcription, actives raise or lower the signal
Description: ATG_CIS is a cell-based, multiplexed-readout assay that uses HepG2, a human liver cell line, with measurements taken at 24 hours after chemical dosing in a 24-well plate.ATG_VDRE_CIS is one of 52 assay component(s) measured or calculated from the ATG_CIS assay. […] This assay endpoint, ATG_VDRE_CIS, was analyzed with bidirectional fitting relative to DMSO as the negative control and baseline of activity. […]
Activity calls are given as the source filed them. The calls were made as follows: active = hit-call score of the fitted dose curve at least 0.9, where 1 is the maximum; inactive = score below 0.9.
Output constraint: value belongs to t for active, f for inactive

>>> class_label("O=C(O)CNc1ccccc1")
"f"

Short answer needed: outcome of this test for `CC(C)Nc1nc(N)nc(Cl)n1` ?
f

Short answer needed: outcome of this test for `Nc1ccc2cc(S(=O)(=O)O)cc(O)c2c1N=Nc1ccccc1C(F)(F)F` ?
f

Short answer needed: outcome of this test for `Cc1ncc[nH]1` ?
f

Short answer needed: outcome of this test for CC(=O)C(C)O (stereo not given) ?
f

Short answer needed: outcome of this test for COC(C)(C)CCCC(C)CC=O (stereo not given) ?
f

Short answer needed: outcome of this test for `COC(=O)c1cccnc1` ?
f

Short answer needed: outcome of this test for `CN(C)CCOc1ccc(/C(=C(/CCCl)c2ccccc2)c2ccccc2)cc1` ?
f

###

Biological target: Transcriptional activator Myb (Homo sapiens)
Assay: ATG_Myb_CIS: Attagene CIS-FACTORIAL HepG2 Assay for human Myeloblastosis (Myb) Proto-Oncogene Transcription Factor (AID 2282986)
Conditions: HepG2 Attagene CIS-FACTORIAL Myb reporter transcription; actives raise or lower the signal
The source made the active and inactive calls. How the source made its calls: active means hit-call score of the fitted dose curve at least 0.9, where 1 is the maximum; inactive means score below 0.9.
Output constraint: value belongs to 1 (yes) (active), 0 (no) (inactive)

>>> class_label("CCCCCCCCC=CCCCCCCCC1=NCCN1CCO")
"0 (no)"
>>> class_label("COC(C)(C)CCO")
"0 (no)"
>>> class_label("C=Cc1ccc(C)cc1")
"0 (no)"
>>> class_label("Cc1cc(CCC(=O)OCCOCCOCCOC(=O)CCc2cc(C)c(O)c(C(C)(C)C)c2)cc(C(C)(C)C)c1O")
"0 (no)"
>>> class_label("C[C@H]1O[C@@H](O[C@H]2[C@@H](O)C[C@H](O[C@H]3[C@@H](O)C[C@H](O[C@H]4CC[C@@]5(C)[C@H](CC[C@@H]6[C@@H]5C[C@@H](O)[C@]5(C)[C@@H](C7=CC(=O)OC7)CC[C@]65O)C4)O[C@@H]3C)O[C@@H]2C)C[C@H](O)[C@@H]1O")
"1 (yes)"

Short answer needed: outcome of this test for `CC1(C)C(=O)N(Cl)C(=O)N1Br` ?
0 (no)

Short answer needed: outcome of this test for `CC1(C)COCN1` ?
0 (no)

Short answer needed: outcome of this test for CC(C)C(OC(=O)c1ccccc1)C(C)(C)COC(=O)c1ccccc1 (configuration not stated) ?
0 (no)

Short answer needed: outcome of this test for `O=c1[nH]c(=O)c2cn[nH]c2[nH]1` ?
0 (no)

Short answer needed: outcome of this test for CCOC(=O)CC(C)O (configuration not stated) ?
0 (no)

Short answer needed: outcome of this test for `COc1ccc(CCO)cc1` ?
0 (no)

Short answer needed: outcome of this test for `CCc1ncc(C)[nH]1` ?
0 (no)
